# credit: paper PMC9178606

Values of pIC50 reported for α-glucosidase (Saccharomyces cerevisiae, UniProt P53341) appear below.
pIC50: −log10 of the molar value.
property: pIC50

1. COc1cc(/C=N/n2c(C)nc3ccc(Br)cc3c2=O)ccc1OCc1ccc(Cl)cc1: 4.86
2. COc1ccc2cc(/C=N/n3c(C)nc4ccc(Br)cc4c3=O)ccc2c1: 4.91

###

Target: xanthine oxidoreductase (Bos taurus)
Sequence (P80457 2-1332 limits assumed): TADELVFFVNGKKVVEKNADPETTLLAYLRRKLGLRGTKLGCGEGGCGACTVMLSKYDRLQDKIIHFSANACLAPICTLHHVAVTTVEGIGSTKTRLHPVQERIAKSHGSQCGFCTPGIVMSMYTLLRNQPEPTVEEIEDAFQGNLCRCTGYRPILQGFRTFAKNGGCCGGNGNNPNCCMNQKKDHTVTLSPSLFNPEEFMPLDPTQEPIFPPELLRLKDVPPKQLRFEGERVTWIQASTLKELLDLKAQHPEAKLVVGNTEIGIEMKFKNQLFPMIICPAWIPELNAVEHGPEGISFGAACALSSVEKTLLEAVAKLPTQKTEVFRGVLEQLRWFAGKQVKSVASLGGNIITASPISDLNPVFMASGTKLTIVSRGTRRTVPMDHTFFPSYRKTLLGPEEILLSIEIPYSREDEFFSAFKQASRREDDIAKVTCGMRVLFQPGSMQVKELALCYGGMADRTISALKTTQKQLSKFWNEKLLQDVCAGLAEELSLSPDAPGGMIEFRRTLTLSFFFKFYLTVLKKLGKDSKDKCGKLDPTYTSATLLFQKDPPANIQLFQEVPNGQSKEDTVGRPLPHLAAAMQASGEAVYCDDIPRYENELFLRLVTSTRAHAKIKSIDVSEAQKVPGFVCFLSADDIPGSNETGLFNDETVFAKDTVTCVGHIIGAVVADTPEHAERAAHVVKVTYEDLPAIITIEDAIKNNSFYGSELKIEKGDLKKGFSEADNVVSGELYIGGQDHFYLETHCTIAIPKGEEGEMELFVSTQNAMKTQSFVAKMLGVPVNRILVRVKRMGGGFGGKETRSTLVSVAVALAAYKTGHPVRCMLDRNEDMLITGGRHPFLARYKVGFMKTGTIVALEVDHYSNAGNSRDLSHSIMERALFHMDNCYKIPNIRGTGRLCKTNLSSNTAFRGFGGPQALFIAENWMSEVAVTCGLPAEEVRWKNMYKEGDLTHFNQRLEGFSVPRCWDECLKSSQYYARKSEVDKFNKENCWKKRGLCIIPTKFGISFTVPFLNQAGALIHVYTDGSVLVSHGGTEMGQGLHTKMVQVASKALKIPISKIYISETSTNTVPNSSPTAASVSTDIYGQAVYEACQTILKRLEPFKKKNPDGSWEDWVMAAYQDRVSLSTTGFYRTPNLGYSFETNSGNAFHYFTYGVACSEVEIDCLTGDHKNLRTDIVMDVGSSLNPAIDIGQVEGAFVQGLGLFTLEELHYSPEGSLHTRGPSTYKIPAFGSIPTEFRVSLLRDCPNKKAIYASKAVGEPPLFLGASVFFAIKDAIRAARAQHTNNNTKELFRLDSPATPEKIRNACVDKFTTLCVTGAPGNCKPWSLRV
pIC50: −log10 of the molar value.
property: pIC50

1. COc1ccc2cc(/C=N/n3c(C)nc4ccc(Br)cc4c3=O)ccc2c1: 5.13

###

Target sequence: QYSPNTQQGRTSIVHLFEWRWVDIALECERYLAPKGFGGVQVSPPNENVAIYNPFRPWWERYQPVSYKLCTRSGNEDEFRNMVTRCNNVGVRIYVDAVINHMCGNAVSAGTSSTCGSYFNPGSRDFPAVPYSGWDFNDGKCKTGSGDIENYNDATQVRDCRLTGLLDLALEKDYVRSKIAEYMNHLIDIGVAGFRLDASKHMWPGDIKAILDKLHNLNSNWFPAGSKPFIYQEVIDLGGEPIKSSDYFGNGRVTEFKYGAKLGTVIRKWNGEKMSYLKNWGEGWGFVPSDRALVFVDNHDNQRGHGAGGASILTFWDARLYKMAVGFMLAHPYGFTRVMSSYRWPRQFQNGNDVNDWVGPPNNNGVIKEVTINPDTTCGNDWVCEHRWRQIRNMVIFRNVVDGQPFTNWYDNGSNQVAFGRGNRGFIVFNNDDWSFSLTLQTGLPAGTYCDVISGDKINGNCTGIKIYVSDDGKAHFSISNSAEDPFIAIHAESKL
property: IC50 (µM)

1) COc1ccc2cc(/C=N/n3c(C)nc4ccc(Br)cc4c3=O)ccc2c1: 310
2) COc1cc(/C=N/n2c(C)nc3ccc(C)cc3c2=O)cc([N+](=O)[O-])c1O: 375
3) COc1cc(/C=N/n2c(C)nc3ccc(Br)cc3c2=O)ccc1OCc1ccc(Cl)cc1: 358
4) Cc1nc2ccc(Br)cc2c(=O)n1/N=C/c1ccc(C(=O)O)cc1: 264
5) O=c1c(O)c(-c2ccc(O)c(O)c2)oc2cc(O)cc(O)c12 [Quercetin, quercetin, reference compound]: 407
6) COc1cc(NCC(=O)Nn2c(C)nc3ccc(Cl)cc3c2=O)cc(OC)c1OC: 401
